Assay: Transparency (no crystallization or gelation) of 12-hydroxystearic acid compositions after manufacturing, visual inspection
Format: physicochemical
Set-up: key: C: a substantially transparent or transparent composition for at least three (3) months after manufacturing; X: an opaque (non-transparent, non-translucent) composition inconsistent with the claimed compositions of this invention and where benefit agent crystallization or composition gelation is almost immediately observed
Conditions: 5% SBA/95% Solvent; SBA = 12-hydroxystearic acid
Description: Cosmetic composition is meant to mean a leave-on or wash-off composition, preferably leave-on, for topical application to mammals, especially humans. […] Flowable, as used herein, means having a viscosity from 0 to 8,000 cps, and preferably, from 10 to 4,000 cps, and most preferably, from 500 to 2,000 cps, including all ranges subsumed therein (viscosity measured on a Brookfield Viscometer, 24° C., 20 RPM, Spindle RV2). […]
QUANTITY_NAME: Transparency of composition

Some solved cases for reference:
{"columns": ["COMPOUND", "Transparency of composition"],
 "data": [
  ["OCCCCO", "X"],
  ["CC(O)CO (stereo not shown)", "X"],
  ["CCCCCCCCCCC(CO)CCCCCCCC (stereo not shown)", "X"],
  ["CC(C)CCCCCCCCCCCCCCCO", "X"]
]}

State its Transparency of composition for this compound: CC(C)CCCCCCCCCCCCCCC(=O)O
X
